- Measured On: T1, human prolactin receptor (PRLR) (human, UniProt P16471 25-622)
- T1 sequence: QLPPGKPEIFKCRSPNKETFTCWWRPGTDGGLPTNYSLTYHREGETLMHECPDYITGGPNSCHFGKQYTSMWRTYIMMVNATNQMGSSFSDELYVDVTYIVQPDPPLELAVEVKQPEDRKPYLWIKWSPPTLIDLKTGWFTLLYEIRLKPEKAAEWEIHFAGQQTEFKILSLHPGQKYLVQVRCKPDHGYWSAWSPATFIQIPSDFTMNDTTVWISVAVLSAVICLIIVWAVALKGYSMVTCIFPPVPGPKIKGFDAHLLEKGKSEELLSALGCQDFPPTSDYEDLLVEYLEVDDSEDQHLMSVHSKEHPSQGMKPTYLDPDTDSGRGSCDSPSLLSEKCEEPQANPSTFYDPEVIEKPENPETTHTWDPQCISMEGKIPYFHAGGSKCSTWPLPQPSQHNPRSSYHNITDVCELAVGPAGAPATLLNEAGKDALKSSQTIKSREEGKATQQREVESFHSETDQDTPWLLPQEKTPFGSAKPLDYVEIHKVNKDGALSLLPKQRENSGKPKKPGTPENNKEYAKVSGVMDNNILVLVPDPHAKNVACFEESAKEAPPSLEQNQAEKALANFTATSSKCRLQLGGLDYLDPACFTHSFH
- Test Name: cell-based or functional assay
Reported Metric: IC50, cell viability, MCF7 cells

Binder	Reported Measurement
H1H6960N-DM1 (antibody, human IgG1, V domains shown, DM1 conjugated through SMCC linker; attachment residues not stated) VH: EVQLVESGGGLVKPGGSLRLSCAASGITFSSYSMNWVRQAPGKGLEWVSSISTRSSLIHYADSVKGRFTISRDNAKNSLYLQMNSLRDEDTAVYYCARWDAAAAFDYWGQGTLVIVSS VL: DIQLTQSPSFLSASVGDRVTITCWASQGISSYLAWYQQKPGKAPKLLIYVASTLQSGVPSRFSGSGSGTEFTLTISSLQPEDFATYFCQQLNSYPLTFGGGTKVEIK	100 nM

Prompt: # input binder: H1H6953N-DM1 (antibody, human IgG1, V domains shown, DM1 conjugated through SMCC linker; attachment residues not stated) VH: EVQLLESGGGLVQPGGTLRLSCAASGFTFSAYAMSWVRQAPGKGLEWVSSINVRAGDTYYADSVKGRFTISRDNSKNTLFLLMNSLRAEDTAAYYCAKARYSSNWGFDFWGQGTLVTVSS VL: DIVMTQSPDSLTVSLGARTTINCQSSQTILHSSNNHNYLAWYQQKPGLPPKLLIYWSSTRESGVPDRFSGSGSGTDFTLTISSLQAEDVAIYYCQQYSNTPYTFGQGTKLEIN ; wanted: its IC50, cell viability, MCF7 cells
Completion: 100 nM

Prompt: # input binder: H1H6958N2-DM1 (antibody, human IgG1, V domains shown, DM1 conjugated through SMCC linker; attachment residues not stated) VH: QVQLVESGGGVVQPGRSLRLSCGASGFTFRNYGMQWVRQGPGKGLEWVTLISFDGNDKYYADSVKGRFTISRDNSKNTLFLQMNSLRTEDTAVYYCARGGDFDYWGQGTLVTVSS VL: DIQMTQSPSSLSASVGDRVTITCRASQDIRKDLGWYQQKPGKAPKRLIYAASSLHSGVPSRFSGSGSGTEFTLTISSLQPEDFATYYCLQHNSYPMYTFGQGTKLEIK ; wanted: its IC50, cell viability, MCF7 cells
Completion: 100 nM
